Test system: wild-type E. coli K-12
Assay type: cell-based, Escherichia coli
condition.label: K-12; antibiotic in combination with PAβN

| compound.string | tested.target | MICb Combined / µg/mL |
| --- | --- | --- |
| CC[C@H]1OC(=O)[C@H](C)[C@@H](O[C@H]2C[C@@](C)(OC)[C@@H](O)[C@H](C)O2)[C@H](C)[C@@H](O[C@@H]2O[C@H](C)C[C@H](N(C)C)[C@H]2O)[C@](C)(O)C[C@@H](C)C(=O)[C@H](C)[C@@H](O)[C@]1(C)O | wild-type E. coli K-12 | 2 |
| CC(=O)NC[C@H]1CN(c2ccc(N3CCOCC3)c(F)c2)C(=O)O1 | wild-type E. coli K-12 | 16 |
| CO[C@@H]1[C@@H](OC(N)=O)[C@@H](O)[C@H](Oc2ccc3c(O)c(NC(=O)c4ccc(O)c(CC=C(C)C)c4)c(=O)oc3c2C)OC1(C)C | wild-type E. coli K-12 | 8 |
| Cc1onc(-c2ccccc2)c1C(=O)N[C@@H]1C(=O)N2[C@@H]1SC(C)(C)[C@@H]2C(=O)O | wild-type E. coli K-12 | 32 |
| CC(=O)O[C@H]1C[C@@]2(C)[C@@H](C[C@@H](O)[C@H]3[C@@]4(C)CC[C@@H](O)[C@@H](C)[C@@H]4CC[C@@]32C)/C1=C(\CCC=C(C)C)C(=O)O | wild-type E. coli K-12 | 32 |

* * *

Quick list: MIC per entry.
System: EKO-35-Pore strains with integrated AcrB, AcrEF, AcrD, MdtEF with pGDP2:emrE or empty pGDP-2
assay.explanation: Efflux pump interplay MIC profiling (pGDP2:emrE), porinated
Assay type: cell-based, Escherichia coli
condition.label: strain acrB pEmrE; Pore +

| compound | MIC |
| --- | --- |
| CC[n+]1c(-c2ccccc2)c2cc(N)ccc2c2ccc(N)cc21 [ethidium bromide] | 15.6 µg/mL |
| CO[C@@H]1[C@@H](OC(N)=O)[C@@H](O)[C@H](Oc2ccc3c(O)c(NC(=O)c4ccc(O)c(CC=C(C)C)c4)c(=O)oc3c2C)OC1(C)C | 100 µg/mL |
| C[n+]1c2cc(N)ccc2cc2ccc(N)cc21.[Cl-] | 12.5 µg/mL |
| CN(C)c1ccc(O)c2c1C[C@H]1C[C@H]3[C@H](N(C)C)C(O)=C(C(N)=O)C(=O)[C@@]3(O)C(O)=C1C2=O | 2.5 µg/mL |

* * *

Tested on: EKO-35 araC::emrAB Pore
assay.explanation: MIC susceptibility profiling, porinated efflux platform
Assay type: cell-based, Escherichia coli
condition.label: EKO-35 araC::emrAB Pore compared to EKO-35-Pore
assay.readout: Fold changes of MICs (fold)

| compound | unit.abbrev | readout.number |
| --- | --- | --- |
| N#Cc1ccc(-c2c(NC(=O)C(Cl)Cl)oc(-c3cccs3)c2C#N)cc1 [compound 2] | fold | 1 |
| COc1ccc(C[C@H](N)C(=O)N[C@H]2[C@@H](O)[C@H](n3cnc4c(N(C)C)ncnc43)O[C@@H]2CO)cc1 [puromycin] | fold | 1 |
| COc1cc(Cc2cnc(N)nc2N)cc(OC)c1OC [trimethoprim] | fold | 2 |
| N#CC(=NNc1ccc(F)c(Cl)c1)C(=O)c1ccc(Cl)cc1 [compound 15] | fold | 1 |

* * *

Test system: EKO-35 porinated strain expressing acrB
assay.explanation: Checkerboard synergy (FICI), porinated strain
Format: cell-based, Escherichia coli
condition.label: strain EKO-35 acrB Pore; antibiotic in combination with NMP
Each item that follows carries a reported MICb Combined.

| compound | tested.target | MICb Combined [µg/mL] |
| --- | --- | --- |
| CC[n+]1c(-c2ccccc2)c2cc(N)ccc2c2ccc(N)cc21 [ethidium bromide] | EKO-35 porinated strain expressing acrB | 2 |
| CC[C@H]1OC(=O)[C@H](C)[C@@H](O[C@H]2C[C@@](C)(OC)[C@@H](O)[C@H](C)O2)[C@H](C)[C@@H](O[C@@H]2O[C@H](C)C[C@H](N(C)C)[C@H]2O)[C@](C)(O)C[C@@H](C)C(=O)[C@H](C)[C@@H](O)[C@]1(C)O [erythromycin] | EKO-35 porinated strain expressing acrB | 0.5 |
| Cc1onc(-c2ccccc2)c1C(=O)N[C@@H]1C(=O)N2[C@@H]1SC(C)(C)[C@@H]2C(=O)O [oxacillin] | EKO-35 porinated strain expressing acrB | 16 |
| CC(=O)NC[C@H]1CN(c2ccc(N3CCOCC3)c(F)c2)C(=O)O1 [linezolid] | EKO-35 porinated strain expressing acrB | 16 |

* * *

System: EKO-35 araC::emrKY Pore
assay.explanation: MIC susceptibility profiling, porinated efflux platform
Assay type: cell-based, Escherichia coli
condition.label: Escherichia coli; EKO-35 araC::emrKY Pore; technical duplicate; read-out: Minimum inhibitory concentration
assay.readout: MIC (µg/mL)

| compound | readout.number |
| --- | --- |
| CCn1cc(C(=O)O)c(=O)c2ccc(C)nc21 | 1.25 |
| CN(C)[C@@H]1C(O)=C(C(N)=O)C(=O)[C@@]2(O)C(O)=C3C(=O)c4c(O)cccc4[C@@](C)(O)[C@H]3C[C@@H]12 | 0.195 |
| C[C@@H]1O[C@@H]1P(=O)(O)O | 0.781 |
| CCCCCCCCCCCCOS(=O)(=O)[O-].[Na+] [SDS, sodium dodecyl sulphate] | 31.2 |
| CC[C@H]1OC(=O)[C@H](C)[C@@H](O[C@H]2C[C@@](C)(OC)[C@@H](O)[C@H](C)O2)[C@H](C)[C@@H](O[C@@H]2O[C@H](C)C[C@H](N(C)C)[C@H]2O)[C@](C)(O)C[C@@H](C)CN(C)[C@H](C)[C@@H](O)[C@]1(C)O | 0.024 |

* * *

Tested on: EKO-35-Pore
assay.explanation: Checkerboard synergy (FICI), porinated strain
Type: cell-based, Escherichia coli
condition.label: strain EKO-35 Pore; NMP + antibiotic
Label 1.0 when FICI >= 0.8; otherwise 0.0.

| molecule | category |
| --- | --- |
| CC(=O)O[C@H]1C[C@@]2(C)[C@@H](C[C@@H](O)[C@H]3[C@@]4(C)CC[C@@H](O)[C@@H](C)[C@@H]4CC[C@@]32C)/C1=C(\CCC=C(C)C)C(=O)O | 0.0 |
| CC(=O)NC[C@H]1CN(c2ccc(N3CCOCC3)c(F)c2)C(=O)O1 | 1.0 |
| CC[n+]1c(-c2ccccc2)c2cc(N)ccc2c2ccc(N)cc21 [ethidium bromide] | 0.0 |
| Cc1onc(-c2ccccc2)c1C(=O)N[C@@H]1C(=O)N2[C@@H]1SC(C)(C)[C@@H]2C(=O)O | 0.0 |
| CC[C@H]1OC(=O)[C@H](C)[C@@H](O[C@H]2C[C@@](C)(OC)[C@@H](O)[C@H](C)O2)[C@H](C)[C@@H](O[C@@H]2O[C@H](C)C[C@H](N(C)C)[C@H]2O)[C@](C)(O)C[C@@H](C)C(=O)[C@H](C)[C@@H](O)[C@]1(C)O | 0.0 |

* * *

System: ΔtolC-Pore
Type: cell-based, Escherichia coli
condition.label: strain ΔtolC Pore; antibiotic in combination with NMP

| compound | tested.target | MICb Combined |
| --- | --- | --- |
| CC(=O)O[C@H]1C[C@@]2(C)[C@@H](C[C@@H](O)[C@H]3[C@@]4(C)CC[C@@H](O)[C@@H](C)[C@@H]4CC[C@@]32C)/C1=C(\CCC=C(C)C)C(=O)O | ΔtolC-Pore | 1 µg/mL |
| Cc1onc(-c2ccccc2)c1C(=O)N[C@@H]1C(=O)N2[C@@H]1SC(C)(C)[C@@H]2C(=O)O | ΔtolC-Pore | 0.5 µg/mL |
| CC(=O)NC[C@H]1CN(c2ccc(N3CCOCC3)c(F)c2)C(=O)O1 | ΔtolC-Pore | 4 µg/mL |
| CC[n+]1c(-c2ccccc2)c2cc(N)ccc2c2ccc(N)cc21 [ethidium bromide] | ΔtolC-Pore | 0.488 µg/mL |
| CC[C@H]1OC(=O)[C@H](C)[C@@H](O[C@H]2C[C@@](C)(OC)[C@@H](O)[C@H](C)O2)[C@H](C)[C@@H](O[C@@H]2O[C@H](C)C[C@H](N(C)C)[C@H]2O)[C@](C)(O)C[C@@H](C)C(=O)[C@H](C)[C@@H](O)[C@]1(C)O | ΔtolC-Pore | 0.5 µg/mL |

* * *

Below, each of the molecules is paired with its reported FICI value.
Tested on: EKO-35
Type: cell-based, Escherichia coli
condition.label: strain EKO-35; NMP + antibiotic

| molecule | tested.target | FICI |
| --- | --- | --- |
| CC(=O)O[C@H]1C[C@@]2(C)[C@@H](C[C@@H](O)[C@H]3[C@@]4(C)CC[C@@H](O)[C@@H](C)[C@@H]4CC[C@@]32C)/C1=C(\CCC=C(C)C)C(=O)O | EKO-35 | 0.625 |
| Cc1onc(-c2ccccc2)c1C(=O)N[C@@H]1C(=O)N2[C@@H]1SC(C)(C)[C@@H]2C(=O)O | EKO-35 | 0.510 |
| CC[n+]1c(-c2ccccc2)c2cc(N)ccc2c2ccc(N)cc21 [ethidium bromide] | EKO-35 | 2.000 |
| CC(=O)NC[C@H]1CN(c2ccc(N3CCOCC3)c(F)c2)C(=O)O1 | EKO-35 | 0.531 |
